test-details: NCI Yeast Anticancer Drug Screen. Data for the bub3 strain (AID 167)
stated-conditions: S. cerevisiae bub3 mutant strain, at 5.0 µM (retest, dose inferred, filed as 0.5)
About 79,000 compounds went through this panel and 15% of them were active in at least one assay; those are over-represented in the sample as a whole. The source made the active and inactive calls. No stated cut-off is given here; in the data, active means growth inhibition above about 70%; inactive means the rest.
// one of active, inactive, no free text

Some solved cases for reference:
>>> class_assignment("O=C(N(c1ccc(Cl)cc1)c1ccc(Cl)cc1)C(Cl)(Cl)Cl")
"inactive"
>>> class_assignment("COc1ccc2c(c1)C(=O)C[C@@H]1[C@](C)(C#N)CCC[C@]21C")
"inactive"
>>> class_assignment("CC(=O)N1C(c2[nH]c3ccccc3c2-c2ccccc2)CCN1c1ccccc1 (configuration not stated)")
"inactive"
>>> class_assignment("CCOC(=O)/C(=C\\c1ccc(Cl)cc1)C(C)=O")
"active"

Per the records of this test, what outcome belongs to O=C(O)C(=O)Cc1ccc(O)cc1 ? inactive

Outcome logged for COc1ccc(C2c3cc4c(cc3OC(C)(O)C2C)OCO4)cc1 (configuration not stated) in this assay: inactive

Record request — test call for CCCCCCCCCCCCNC(=O)NCC(OCC)OCC inactive

Tell me the recorded outcome of this test for COc1ccc2c(c1OC)C1=C(C2=O)c2cc3c(cc2CCN1)OCO3 . inactive

# lookup: test call for Clc1ccc([I+]c2cccs2)cc1 inactive

Record request — test call for Cc1cc(NCCCCCCCCCC[n+]2c(C)cc(N)c3ccccc32)c2ccccc2n1 active

Source listed as PubChem BioAssay (NCI).
